# Lookup of reported T/C keyed by entry
system: P388 leukemia ip, CD2F1 mice, survival T/C; experiment: NCI In Vivo Anticancer Drug Screen. Data for tumor model P388 Leukemia (intraperitoneal) in CD2F1 (CDF1) mice; conditions: endpoint: median survival time; dose: 50.0 mg/kg/injection; schedule: Q01DX009 (ip); vehicle: saline with Tween-80; higher = longer survival
Toxic doses and inconclusive results are not listed.

See these solved cases before continuing.
- Compound: "Cc1cccc(C)c1NC(=S)NC(=O)c1ccccc1"
  Assay Endpoint: "T/C"
  Readout Value: "100 % of control"
- Compound: "CCOC(=O)Nc1nc2cc(C(=O)OC)n(C)c2s1"
  Assay Endpoint: "T/C"
  Readout Value: "95 % of control"
- Compound: "COc1cc2c(cc1OC)-c1c3c(cc4c1[C@@H](C2)N(C)CC4)OCO3"
  Assay Endpoint: "T/C"
  Readout Value: "102 % of control"
- Compound: "Cc1cn(O)cc(C)c1=N"
  Assay Endpoint: "T/C"
  Readout Value: "108 % of control"
- Compound: "N#Cc1ccc(=O)[nH]c1O"
  Assay Endpoint: "T/C"
  Readout Value: "99 % of control"
- Compound: "CCCCCCCCCCCCN(C)C"
  Assay Endpoint: "T/C"
  Readout Value: "100 % of control"
- Compound: "CC(=O)c1c[nH]cc1CO"
  Assay Endpoint: "T/C"
  Readout Value: "107 % of control"
- Compound: "O=S1(=O)c2ccccc2C(O)(c2ccccc2)c2cc3ccccc3n21 (stereo not drawn)"
  Assay Endpoint: "T/C"
  Readout Value: "93 % of control"
- Compound: "C/C(=C\\C(=O)c1ccccc1)Nc1ccc(Cl)cc1"
  Assay Endpoint: "T/C"
  Readout Value: "92 % of control"
- Compound: "N#C/C(=C1C=C/C(=N/O)C=C/1Cl)c1ccccc1"
  Assay Endpoint: "T/C"
  Readout Value: "95 % of control"

Can you look up the measured T/C of CCCCCCCCCCCCCCCCCC(=O)CC(=O)C(F)(F)F (tested in a mixture with another compound) for me?
91 % of control

Fill in the blank: the reported T/C of COC(=O)/C=C/CCO is ____.
111 % of control

Looking for the measured T/C of O=C(/C=C/c1ccccc1)n1nnc2cc(Cl)c(Cl)cc21 , can you help?
92 % of control

---

test system: P388 leukemia ip, CD2F1 mice, survival T/C; experiment: NCI In Vivo Anticancer Drug Screen. Data for tumor model P388 Leukemia (intraperitoneal) in CD2F1 (CDF1) mice; settings: endpoint: median survival time; dose: 100.0 mg/kg/injection; schedule: Q01DX009 (ip); vehicle: Klucel (hydroxypropylcellulose) (HPC); higher = longer survival
Toxic doses and inconclusive results are not listed.
Readings of T/C for the listed compounds

- Smiles Record: "C=C(CCCCC)C(=O)/C=C/c1ccccc1"
  Assay Endpoint: "T/C"
  Readout Value: "107 % of control"

Kindly consider the entry below.
Fill in the recorded T/C for this compound, with P388 leukemia ip, CD2F1 mice, survival T/C as test system: Cc1ccc(C(=O)Nc2ccccn2)cc1
93 % of control

---

tested on: P388 leukemia ip, CD2F1 mice, survival T/C; assay: NCI In Vivo Anticancer Drug Screen. Data for tumor model P388 Leukemia (intraperitoneal) in CD2F1 (CDF1) mice; conditions: endpoint: median survival time; dose: 400.0 mg/kg/injection; schedule: Q04DX002 (ip); vehicle: saline with Tween-80; higher = longer survival
Toxic doses and inconclusive results are not listed.
As shown below, each of these compounds has a reported T/C value.

Known results for compounds:
- Compound: "NC1=NS(=O)(=O)c2ccccc2N1c1ccccc1"
  T/C: "92 % of control"
- Compound: "CSC(=S)n1nc(-c2ccccc2)c(N=Nc2cccc(C)c2C)c1C"
  T/C: "112 % of control"
- Compound: "CCC(c1ccc(OC)cc1)C(NCC(=O)NNC(=O)CNC(c1ccc(OC)cc1)C(CC)c1ccc(OC)cc1)c1ccc(OC)cc1 (configuration not stated)"
  T/C: "92 % of control"
- Compound: "Cc1ccc(-c2csc(=NCCc3ccccc3)n2-c2ccc(C)cc2)cc1"
  T/C: "93 % of control"
- Compound: "Cc1cc(=O)[nH][nH]1"
  T/C: "94 % of control"

So what does the record say about T/C for CC1=NOC(=O)C1N=Nc1ccc(Br)cc1C (configuration not stated) ?
102 % of control

# lookup: T/C of CN(C)C1=CC=C2C(=O)c3ccccc3C2(c2ccccc2)C=C1 (configuration not stated)
89 % of control

---

Recorded T/C for the following compounds
system: P388 leukemia ip, CD2F1 mice, survival T/C; experiment: NCI In Vivo Anticancer Drug Screen. Data for tumor model P388 Leukemia (intraperitoneal) in CD2F1 (CDF1) mice; conditions: endpoint: median survival time; dose: 200.0 mg/kg/injection; schedule: Q01DX005 (ip); vehicle: saline with Tween-80; higher = longer survival
Inconclusive results and toxic doses are left out.

Completed entries (count: 5):
- Compound: "CCCCCN(CCCCC)CC(=O)c1ccc2cc(Br)c3ccccc3c2c1"
  T/C: "108 % of control"
- Compound: "CC(=O)Oc1ccccc1C(=O)OC1CC2CCC1(C)C2(C)C (centres undefined)"
  T/C: "98 % of control"
- Compound: "CC(Oc1cc(Cl)c(Cl)cc1Cl)C(=O)NC(Cc1ccccc1)C(=O)O (centres undefined)"
  T/C: "95 % of control"
- Compound: "Cc1c2oc(=O)cc(-c3ccccc3)c2cc2c(=O)ccoc12"
  T/C: "86 % of control"
- Compound: "[O-]c1ccc[n+]2c1sc1ncccc12 (tested in a mixture with another compound)"
  T/C: "105 % of control"

Endpoint output: T/C of O=C1CSC(c2ccoc2)N1N1C(=O)CSC1c1ccoc1 (centres undefined) . Value?
90 % of control

Quick one: T/C of COc1ccc2nc(N/N=C/c3cccc(C)n3)cc(C)c2c1 ?
116 % of control

Given the compound COc1ccccc1NC(=O)C1=C(C)NC(C)=C(C(=O)Nc2ccccc2OC)C1c1ccc(Cl)cc1Cl , what is its reported T/C?
91 % of control

Which value of T/C has been reported for CC1(O)c2ccccc2-c2ccccc2C1(C)O (centres undefined) in the records?
90 % of control

Given the compound CC1(C)CC(=O)NC(=O)N1 , what is its reported T/C?
104 % of control

---

Test system: P388 leukemia ip, CD2F1 mice, survival T/C
Assay: NCI In Vivo Anticancer Drug Screen. Data for tumor model P388 Leukemia (intraperitoneal) in CD2F1 (CDF1) mice
Settings: endpoint: median survival time; dose: 50.0 mg/kg/injection; schedule: Q01DX005 (ip); vehicle: Klucel (hydroxypropylcellulose) (HPC); higher = longer survival
Method: The antitumor activity of compounds was measured in mice bearing transplantable tumors. Survival or tumor size were measured and the results are expressed as the measurement made in the treated group (T) divided by the measurement made in the vehicle treated control group (C). The tumor model used in this assay is P388 Leukemia (intraperitoneal) in CD2F1 (CDF1) mice
Toxic doses and inconclusive results are not listed. Bridge positions count the residues as written; N and C are the ends. Peptide text beside a SMILES is read from it. I, II: the chains in the order shown. * marks the point of attachment. Cbz = O=C(OCc1ccccc1)*
Form field: T/C (one value per entry).

Reference set, count: 3
- Compound: "CCOC(=O)CNC(=O)C(CS)NC(=O)C(CSC(c1ccccc1)c1ccccc1)NC(=O)OCc1ccccc1 (stereo not drawn)"
  Readout Value: "97 % of control"
- Compound: "CC1NC(=O)C(NC(=O)OCc2ccccc2)COC(=O)C(C(C)C)NC(=O)C2CSSCC(NC1=O)C(=O)NC(C(C)C)C(=O)OCC(NC(=O)OCc1ccccc1)C(=O)NC(C)C(=O)N2 (stereo not drawn) (I: Cbz-SACV / II: Cbz-SACV; ester I:1-II:C, I:C-II:1; disulfide I:3-II:3; configuration not given here)"
  Readout Value: "99 % of control"
- Compound: "N=C(N)c1ccc2oc(/C=C/c3ccc(-c4cc5cc(C(=N)N)ccc5o4)cc3)cc2c1"
  Readout Value: "98 % of control"

Name the recorded T/C for c1ccc2c(c1)Nc1ccccc1O2 .
91 % of control

Please look up its T/C: C=C1CC(NCC(=O)OCC)=C(O)C1=O
90 % of control

Endpoint output: T/C of CC(NC(=O)OCc1ccccc1)C(=O)N1CCCC1C(=O)O (stereo not drawn) . Value?
91 % of control

For Cc1ccc(C(=O)c2cc3c([nH]c4ccccc43)c(C)c2C(=O)O)cc1 , what is its reported T/C?
103 % of control

Can you look up the measured T/C of CCOc1nc(N)c(C(=O)c2ccc(O)c(O)c2)s1 for me?
111 % of control

---

system: P388 leukemia ip, CD2F1 mice, survival T/C; assay: NCI In Vivo Anticancer Drug Screen. Data for tumor model P388 Leukemia (intraperitoneal) in CD2F1 (CDF1) mice; conditions: endpoint: median survival time; dose: 100.0 mg/kg/injection; schedule: Q01DX005 (ip); vehicle: Klucel (hydroxypropylcellulose) (HPC); higher = longer survival
Inconclusive results and toxic doses are left out. Peptide text beside a SMILES is read from it. * marks the point of attachment. Cbz = O=C(OCc1ccccc1)*; Bn = c1ccc(C*)cc1
Assay Endpoint: T/C

Here are 5 compounds together with their reported answers.
- Compound: "CCCOC(=O)/C=C/C(=O)N1CC(C)N(C(=O)/C=C/C(=O)OCCC)CC1C (centres undefined)"
  Readout Value: "98 % of control"
- Compound: "CCOC(=O)c1cnc(SC)n(-c2c(Cl)cccc2Cl)c1=O"
  Readout Value: "97 % of control"
- Compound: "CC1CCc2c(c3ccc(O)cc3oc2=O)C1 (centres undefined)"
  Readout Value: "96 % of control"
- Compound: "CC(C)C(NC(=O)C(CSCc1ccccc1)NC(=O)OCc1ccccc1)C(=O)O (centres undefined) (Cbz-Cys(Bn)-Val-OH; configuration not given here)"
  Readout Value: "88 % of control"
- Compound: "CSc1ccnc2cc(Cl)ccc12"
  Readout Value: "106 % of control"

# query: T/C of entry CSCCC(NC(=O)C(C)NC(=O)OCc1ccccc1)C(=O)O (centres undefined)
101 % of control

Need T/C of Cc1cnc2cc(Cl)ccc2c1Cl , thanks.
100 % of control

Reported T/C for CC(C)=NN/C=N/S(=O)(=O)c1ccc(C)cc1 : what is it?
104 % of control

Provenance of the data: PubChem BioAssay AID330
